# System: human NaV 1.8 (Homo sapiens, UniProt Q9Y5Y9)
# Sequence (Q9Y5Y9 126-1722 limits assumed): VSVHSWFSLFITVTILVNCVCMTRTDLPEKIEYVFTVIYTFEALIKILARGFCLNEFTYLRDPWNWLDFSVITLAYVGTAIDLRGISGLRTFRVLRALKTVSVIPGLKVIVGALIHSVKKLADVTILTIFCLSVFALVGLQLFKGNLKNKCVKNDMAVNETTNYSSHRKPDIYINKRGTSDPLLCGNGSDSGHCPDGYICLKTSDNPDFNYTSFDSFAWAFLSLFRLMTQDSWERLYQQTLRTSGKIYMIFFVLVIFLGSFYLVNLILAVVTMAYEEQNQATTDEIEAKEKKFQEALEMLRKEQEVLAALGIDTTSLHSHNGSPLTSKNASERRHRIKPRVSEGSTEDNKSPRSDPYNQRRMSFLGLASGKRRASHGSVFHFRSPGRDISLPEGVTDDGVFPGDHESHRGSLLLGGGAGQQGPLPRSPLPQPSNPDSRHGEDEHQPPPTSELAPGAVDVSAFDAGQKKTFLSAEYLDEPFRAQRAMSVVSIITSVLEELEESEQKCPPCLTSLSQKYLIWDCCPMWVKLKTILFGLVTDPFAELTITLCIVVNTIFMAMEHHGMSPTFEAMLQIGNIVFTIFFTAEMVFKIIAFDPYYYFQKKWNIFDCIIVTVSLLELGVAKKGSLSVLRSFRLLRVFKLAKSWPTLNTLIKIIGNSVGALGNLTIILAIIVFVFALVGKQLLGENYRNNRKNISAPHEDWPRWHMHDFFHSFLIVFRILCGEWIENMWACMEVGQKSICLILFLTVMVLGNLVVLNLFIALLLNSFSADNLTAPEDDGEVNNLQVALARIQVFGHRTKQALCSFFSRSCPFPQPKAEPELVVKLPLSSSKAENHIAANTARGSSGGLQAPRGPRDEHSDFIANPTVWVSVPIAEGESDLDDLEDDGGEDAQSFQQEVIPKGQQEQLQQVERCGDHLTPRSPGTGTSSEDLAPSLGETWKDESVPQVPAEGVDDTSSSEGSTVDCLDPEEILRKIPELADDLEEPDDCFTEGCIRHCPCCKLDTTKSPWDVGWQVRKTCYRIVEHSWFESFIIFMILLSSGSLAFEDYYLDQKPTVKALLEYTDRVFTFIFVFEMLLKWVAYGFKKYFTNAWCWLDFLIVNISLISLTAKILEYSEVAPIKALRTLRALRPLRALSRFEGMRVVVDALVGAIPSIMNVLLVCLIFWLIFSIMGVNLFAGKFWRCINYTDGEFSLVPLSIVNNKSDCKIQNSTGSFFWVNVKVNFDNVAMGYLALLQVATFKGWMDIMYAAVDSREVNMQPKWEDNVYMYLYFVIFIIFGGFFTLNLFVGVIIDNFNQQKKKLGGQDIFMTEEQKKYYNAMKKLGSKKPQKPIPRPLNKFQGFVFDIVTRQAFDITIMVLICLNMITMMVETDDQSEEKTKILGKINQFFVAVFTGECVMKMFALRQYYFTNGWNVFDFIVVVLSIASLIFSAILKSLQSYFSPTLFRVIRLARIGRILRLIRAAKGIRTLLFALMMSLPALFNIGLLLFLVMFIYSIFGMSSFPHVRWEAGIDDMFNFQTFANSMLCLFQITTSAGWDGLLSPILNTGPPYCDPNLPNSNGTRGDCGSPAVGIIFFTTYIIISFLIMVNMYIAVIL
# Assay Overview: E-VIPR assay detecting and measuring NaV inhibition properties
# Details: HEK cells expressing a truncated form of human NaV 1.8; electrical stimulation, membrane potential FRET dyes
# From the text: E-VIPR Assay Detecting and Measuring NaV Inhibition Properties Sodium ion channels are voltage-dependent proteins that can be activated by inducing membrane voltage changes by applying electric fields. […]
Attribute Measured: IC50

Some solved entries appear below for comparison.
- Compound: "CCOc1c([C@H]2[C@H](C(=O)Nc3ccc([C@@H](O)CO)nc3)O[C@@](C)(C(F)(F)F)[C@H]2C)ccc(F)c1C (single isomer, unassigned)"
  IC50: "< 10 nM"
- Compound: "COc1c([C@@H]2C[C@](C)(C(F)(F)F)O[C@H]2C(=O)Nc2ccc([C@@H](O)CO)nc2)ccc(F)c1F (relative stereo)"
  IC50: "100 to 1000 nM"

What measured IC50 goes with C[C@]1(C(F)(F)F)C[C@@H](c2ccc(OC(F)(F)F)cc2Cl)[C@H](C(=O)Nc2ccc([C@@H](O)CO)nc2)O1 (single isomer, unassigned) ?
100 to 1000 nM

====

# System: human NaV 1.8 (Homo sapiens, UniProt Q9Y5Y9)
# Assay Overview: E-VIPR assay detecting and measuring NaV inhibition properties
# Details: HEK cells expressing a truncated form of human NaV 1.8; electrical stimulation, membrane potential FRET dyes
pIC50: −log10 of the molar value.
Attribute Measured: pIC50

Some solved entries appear below for comparison.
- Compound: "COc1c([C@@H]2[C@@H](C(=O)Nc3ccc([C@@H](O)CO)nc3)O[C@](C)(C(F)(F)F)[C@@H]2C)cccc1C(F)(F)F (single isomer, unassigned) [Compound 69]"
  System: "human NaV 1.8 (Homo sapiens, UniProt Q9Y5Y9)"
  pIC50: "≤ 6.00"
- Compound: "COc1c([C@H]2[C@H](C(=O)Nc3ccc([C@H](C)O)nc3)O[C@@](C)(C(F)(F)F)[C@H]2C)ccc(F)c1F [Compound 85]"
  System: "human NaV 1.8 (Homo sapiens, UniProt Q9Y5Y9)"
  pIC50: "7.00 to 8.00"
- Compound: "COc1c([C@H]2[C@H](C(=O)Nc3ccc([C@@H](O)CO)nc3)O[C@@](C)(C(F)(F)F)[C@H]2C)cccc1C(F)(F)F (single isomer, unassigned) [Compound 70]"
  System: "human NaV 1.8 (Homo sapiens, UniProt Q9Y5Y9)"
  pIC50: "> 8.00"
- Compound: "COc1c([C@H]2[C@H](C(=O)Nc3ccc(CO)nc3)O[C@@](C)(C(F)(F)F)[C@H]2C)ccc(F)c1F [Compound 14]"
  System: "human NaV 1.8 (Homo sapiens, UniProt Q9Y5Y9)"
  pIC50: "> 8.00"
- Compound: "COc1c([C@H]2[C@H](C(=O)Nc3cnc(CO)c(F)c3)O[C@@](C)(C(F)(F)F)[C@H]2C)ccc(F)c1F [Compound 83]"
  System: "human NaV 1.8 (Homo sapiens, UniProt Q9Y5Y9)"
  pIC50: "> 8.00"

Could you now look at the following compound, please?
What measured pIC50 goes with COc1c([C@H]2[C@H](C(=O)Nc3ccc(CO)nc3)O[C@@](C)(C(F)(F)F)[C@H]2C)ccc(OC(F)F)c1F [Compound 18] ?
7.00 to 8.00

meta.source: patent US11827627B2
